# STUDY_TARGET: Replicase polyprotein 1ab (Severe acute respiratory syndrome coronavirus 2) (UniProt P0DTD1)
# TEST_PROTOCOL: Inhibition of SARS CoV-2 main protease at 10 uM relative to control
Rule: inhibition under 70% gives no, otherwise yes.

| COMPOUND | LABEL |
| --- | --- |
| Cc1cccc(C)c1NC(=O)C1c2cccc[n+]2CC(=O)N1CCO (configuration not stated) | no |
| O=C(Nc1ccccc1)C1c2cccc[n+]2CC(=O)N1c1ccccc1 (configuration not stated) | yes |
| O=C(Nc1ccc(Cl)cc1)C1c2cccc[n+]2CC(=O)N1c1ccc(Cl)cc1 (configuration not stated) | yes |
| Cc1ccccc1N1C(=O)C[n+]2ccccc2C1C(=O)Nc1ccccc1 (configuration not stated) | yes |
| Cc1cccc(N2C(=O)C[n+]3ccccc3C2C(=O)Nc2ccccc2)c1 (configuration not stated) | yes |
| O=C(Nc1ccc(Cl)cc1)C1c2cccc[n+]2CC(=O)N1c1cccc(Cl)c1 (configuration not stated) | yes |
| Cc1cc(C)cc(N2C(=O)C[n+]3ccccc3C2C(=O)Nc2ccc(Cl)cc2)c1 (configuration not stated) | yes |
| Cc1cccc(C)c1NC(=O)C1c2cccc[n+]2CC(=O)N1c1ccc(Cl)cc1 (configuration not stated) | no |
| Cc1ccc(N2C(=O)C[n+]3ccccc3C2(C)C(=O)Nc2ccc(Cl)cc2)cc1 (configuration not stated) | no |
| CCOc1ccc(N2C(=O)C[n+]3ccccc3C2C(=O)Nc2ccc(Cl)cc2)cc1 (configuration not stated) | no |
| Cc1ccccc1NC(=O)C1c2cccc[n+]2CC(=O)N1c1c(C)cccc1C (configuration not stated) | no |
| Cc1ccc(N2C(=O)C[n+]3ccccc3C2C(=O)Nc2c(C)cccc2C)cc1Cl (configuration not stated) | no |
| CCOc1ccc(NC(=O)C2c3cccc[n+]3CC(=O)N2c2ccc(OC)cc2)cc1 (configuration not stated) | no |
| O=C(Nc1ccc(Cl)cc1)C1c2cccc[n+]2CC(=O)N1Cc1ccc2c(c1)OCO2 (configuration not stated) | yes |
| Cc1cccc(C)c1NC(=O)C1c2cccc[n+]2CC(=O)N1Cc1ccc2c(c1)OCO2 (configuration not stated) | no |
| CCCN1C(=O)C[n+]2ccccc2C1C(=O)Nc1c(C)cccc1C (configuration not stated) | no |
| CN1C(=O)C[n+]2ccccc2C1C(=O)Nc1ccccc1 (configuration not stated) | yes |
| COc1ccccc1N1C(=O)C[n+]2ccccc2C1C(=O)Nc1c(C)cccc1C (configuration not stated) | no |
| COc1ccc(NC(=O)C2c3cccc[n+]3CC(=O)N2c2ccccc2O)cc1 (configuration not stated) | no |
| Cc1ccc(N2C(=O)C[n+]3ccccc3C2C(=O)Nc2ccc(Cl)cc2)cc1Br (configuration not stated) | yes |
| Cc1cccc(C)c1NC(=O)C1c2cccc[n+]2CC(=O)N1c1cccc(C(F)(F)F)c1 (configuration not stated) | no |
| Cc1cccc(C)c1NC(=O)C1c2cccc[n+]2CC(=O)N1c1cccc(Cl)c1 (configuration not stated) | no |
| Cc1cccc(C)c1NC(=O)C1(C)c2cccc[n+]2CC(=O)N1c1ccc(Cl)cc1 (configuration not stated) | no |
| CC1(C(=O)Nc2ccc(Cl)cc2)c2cccc[n+]2CC(=O)N1c1ccc(Cl)cc1 (configuration not stated) | no |
| C=CCN1C(=O)C[n+]2ccccc2C1C(=O)Nc1c(C)cccc1C (configuration not stated) | no |
| CCc1cccc(C)c1N1C(=O)C[n+]2ccccc2C1C(=O)Nc1ccccc1C (configuration not stated) | no |
| Cc1cccc(C)c1NC(=O)C1c2cccc[n+]2CC(=O)N1C (configuration not stated) | yes |
| Cc1cc(C)cc(N2C(=O)C[n+]3ccccc3C2C(=O)Nc2ccccc2C)c1 (configuration not stated) | no |
| CCN1C(=O)C[n+]2ccccc2C1C(=O)Nc1c(C)cccc1C (configuration not stated) | no |
| Cc1ccccc1NC(=O)C1c2cccc[n+]2CC(=O)N1C (configuration not stated) | yes |
| COc1ccc(N2C(=O)C[n+]3ccccc3C2C(=O)Nc2ccc(Cl)cc2)cc1 (configuration not stated) | no |
| CCOc1ccc(NC(=O)C2c3cccc[n+]3CC(=O)N2c2ccc(OCC)cc2)cc1 (configuration not stated) | no |
| Cc1cccc(C)c1NC(=O)C1c2cccc[n+]2CC(=O)N1c1ccc2c(c1)OCO2 (configuration not stated) | no |
| O=C(Nc1ccc(Cl)cc1)C1c2cccc[n+]2CC(=O)N1c1ccc(Br)cc1 (configuration not stated) | yes |
| CCOc1ccc(NC(=O)C2c3cccc[n+]3CC(=O)N2c2ccccc2)cc1 (configuration not stated) | yes |
| Cc1ccc(N2C(=O)C[n+]3ccccc3C2C(=O)Nc2ccccc2C)cc1 (configuration not stated) | yes |
